For each record, write down the corresponding T/C.
tested on: P388; assay: Compound was tested for antitumor activity in P-388 lymphocytic leukemia system at 25 mg/kg dose levels per injection; format: functional, Mus musculus
Give bare numbers, in %.

Examples from the recorded data:
Enter recorded T/C with P388 for CN1CCN(CN2C(=O)C3C4C=CC(C3C2=O)C2C3C(=O)N(CN5CCN(C)CC5)C(=O)C3C42)CC1 (stereo not given) here.
99

State measured T/C of the compound O=C1C2C3C=CC(C2C(=O)N1CN1CCSCC1)C1C2C(=O)N(CN4CCSCC4)C(=O)C2C31 (stereo not given) with P388.
99

List reported T/C for each of these compounds:
1. CCN(CC)CN1C(=O)C2C3C=CC(C2C1=O)C1C2C(=O)N(CN(CC)CC)C(=O)C2C31 (stereo not given)
2. CC(=O)OC(C(=O)O)N1C(=O)C2C3C=CC(C2C1=O)C1C2C(=O)N(C(OC(C)=O)C(=O)O)C(=O)C2C31 (stereo not given)
3. CC(=O)OCN1C(=O)C2C3C=CC(C2C1=O)C1C2C(=O)N(COC(C)=O)C(=O)C2C31 (stereo not given)

[103, 103, 117]

---

system: P388; assay: Antitumor activity in P-388 lymphocytic leukemia system at 100 mg/kg dose levels per injection.; format: functional, Mus musculus
Would you mind telling me the reported T/C of each entry?
Answers are plain numbers, in %.

These recorded examples may help you get a feel for the data.
Print P388 T/C for O=C1NC(=O)C2C1C(C(=O)O)C1C3C(=O)NC(=O)C3C1C2C(=O)O (centres undefined) .
97

Fetch value of T/C on P388 for CC1=CC2(C)C3C(=O)NC(=O)C3C1C1(C)C3C(=O)NC(=O)C3C21 (centres undefined) .
109

For the 6 molecules below, give their T/C values.
1. O=C1C2C3CCC(C2C(=O)N1CO)C1C2C(=O)N(CO)C(=O)C2C31 (centres undefined)
2. O=C1NC(=O)C2C3C=CC(C12)C1C(=O)NC(=O)C31 (centres undefined)
3. O=C1NC(=O)C2C3C=CC(C12)C1C2C(=O)NC(=O)C2C31 (centres undefined)
4. CC12C=CC(C)(C3C(=O)NC(=O)C31)C1C3C(=O)NC(=O)C3C12 (centres undefined)
5. O=C(O)CCC(=O)OCN1C(=O)C2C3C=CC(C2C1=O)C1C2C(=O)N(COC(=O)CCC(=O)O)C(=O)C2C31 (centres undefined)
6. CN1C(=O)C2C3C=CC(C2C1=O)C1C2C(=O)N(C)C(=O)C2C31 (centres undefined)

1. 205
2. 97
3. 94
4. 109
5. 165
6. 111

Provide P388 T/C reading for COC1=CC2C3C(=O)NC(=O)C3C1C1C3C(=O)NC(=O)C3C21 (centres undefined) .
101

---

tested on: P388; experiment: Compound was tested for antitumor activity in P-388 lymphocytic leukemia system at 200 mg/kg dose levels per injection; type: functional, Mus musculus
For each of the compounds below, state its Weight difference.

Worked examples follow.
Please report the measured Weight difference for CC1=CC2(C)C3C(=O)NC(=O)C3C1C1(C)C3C(=O)NC(=O)C3C21 (centres undefined)
-1.8 g

For the compound CC12C=CC(C)(C3C(=O)NC(=O)C31)C1C3C(=O)NC(=O)C3C12 (centres undefined) , give its reported Weight difference.
-6.1 g

Give reported Weight difference value for O=C1NC(=O)C2C3C=CC(C12)C1C(=O)NC(=O)C31 (centres undefined)
-4.3 g

Could you now look at the following compound, please?
Using known records, supply Weight difference for CCOC(=O)N1C(=O)C2C3C=CC(C2C1=O)C1C2C(=O)N(C(=O)OCC)C(=O)C2C31 (centres undefined)
-6.5 g

---

assay: Solubility was determined; type: physicochemical
Rule: measured Solubility below 0.8% gets Condition met; anything equal to or greater than 0.8% gets Condition not met.

Past entries and their recorded results:
In plain terms, does CN1CCN(CN2C(=O)C3C4C=CC(C3C2=O)C2C(=O)N(CN3CCN(C)CC3)C(=O)C42)CC1 (stereo not given) come in under 0.8% for Solubility?
Condition not met

Quick check: does O=C1C2C3CCC(C2C(=O)N1CO)C1C2C(=O)N(CO)C(=O)C2C31 (stereo not given) have Solubility under 0.8%?
Condition not met

Does the reported Solubility of CN1CCN(CN2C(=O)C3C4C=CC(C3C2=O)C2C3C(=O)N(CN5CCN(C)CC5)C(=O)C3C42)CC1 (stereo not given) stay below 0.8%?
Condition not met

Others:
Please determine if O=C1C2C3C=CC(C2C(=O)N1CO)C1C(=O)N(CO)C(=O)C31 (stereo not given) is below 0.8% in terms of Solubility.
Condition met

---

test system: P388; assay: Antitumor activity in P-388 lymphocytic leukemia system at 100 mg/kg dose levels per injection.; format: functional, Mus musculus
Kindly supply the reported Weight difference values for the records listed here.
Give bare numbers, in g.

Some entries whose results are on file:
# return recorded Weight difference for input O=C1NC(=O)C2C3C=CC(C12)C1C(=O)NC(=O)C31 (stereo unspecified)
-2.4

Return Weight difference for the following compound: O=C1NC(=O)C2C1C(C(=O)O)C1C3C(=O)NC(=O)C3C1C2C(=O)O (stereo unspecified)
-0.7

Look up Weight difference of CC12C=CC(C)(C3C(=O)NC(=O)C31)C1C3C(=O)NC(=O)C3C12 (stereo unspecified) and report it.
-4.8

In one line, give reported Weight difference of the entry O=C1NC(=O)C2C3C=CC(C12)C1C2C(=O)NC(=O)C2C31 (stereo unspecified) .
-3.4

Using the record for CC1=CC2(C)C3C(=O)NC(=O)C3C1C1(C)C3C(=O)NC(=O)C3C21 (stereo unspecified) , state its measured Weight difference.
-1.5

Further cases:
Given the compound CN1C(=O)C2C3C=CC(C2C1=O)C1C2C(=O)N(C)C(=O)C2C31 (stereo unspecified) , write its reported Weight difference.
-0.8

---

system: P388; experiment: Compound was tested for antitumor activity in P-388 lymphocytic leukemia system and the difference in body weight was calculated at 400 mg/kg dose levels per injection; format: functional, Mus musculus
Could you please report measured Weight difference for the items listed next?
One number for each entry, in g.

Give the measured Weight difference for CN1CCN(CN2C(=O)C3C4C=CC(C3C2=O)C2C(=O)N(CN3CCN(C)CC3)C(=O)C42)CC1 (stereo unspecified)
-6.4

Report Weight difference, nothing else, for this compound: CC(=O)OC(C(=O)O)N1C(=O)C2C3C=CC(C2C1=O)C1C2C(=O)N(C(OC(C)=O)C(=O)O)C(=O)C2C31 (stereo unspecified)
-5.7

Report Weight difference for CC(=O)OCN1C(=O)C2C3C=CC(C2C1=O)C1C2C(=O)N(COC(C)=O)C(=O)C2C31 (stereo unspecified)
-2.2

Please give Weight difference, item by item, for the list that follows.
1. O=C1C2C3C=CC(C2C(=O)N1CN1CCSCC1)C1C2C(=O)N(CN4CCSCC4)C(=O)C2C31 (stereo unspecified)
2. CCN(CC)CN1C(=O)C2C3C=CC(C2C1=O)C1C2C(=O)N(CN(CC)CC)C(=O)C2C31 (stereo unspecified)
3. COC1=CC2C3C(=O)NC(=O)C3C1C1C3C(=O)NC(=O)C3C21 (stereo unspecified)

[-5.7, -0.9, -2]
